Below is a list of entries, each paired with its recorded log10(IC50) value.
System: TLR2 induced IL-6 in peripheral blood mononuclear cells (PBMCs)
Experimental protocol: PBMC TLR2 Induced IL-6 Assay
Type: cell-based, human
Experimental setup: Homo sapiens, PBMC, 5 h, human PBMCs, 10 μg/ml lipoteichoic acid for 5 hours, IL-6 by ELISA; value without asterisk; read-out: Cell IC50
Value kind: log10(IC50) (log10 of the value in nM)

- Compound: "CC(C)(O)[C@H](F)CNC(=O)c1cnc(Nc2ccc3ncsc3c2)cc1NC1C2CCCC21 (stereo partly shown)"
  Assayed system: "TLR2 induced IL-6 in peripheral blood mononuclear cells (PBMCs)"
  log10(IC50): 2.71
- Compound: "CC(C)(O)[C@H](F)CNC(=O)c1cnc(Nc2ccc3ncsc3n2)cc1NC1CC1"
  Assayed system: "TLR2 induced IL-6 in peripheral blood mononuclear cells (PBMCs)"
  log10(IC50): 2.16
- Compound: "CC(C)(O)[C@H](F)CNC(=O)c1cnc(Nc2ccn3nccc3n2)cc1NC1COCCC1F (stereo partly shown)"
  Assayed system: "TLR2 induced IL-6 in peripheral blood mononuclear cells (PBMCs)"
  log10(IC50): 2.77
- Compound: "CC(C)Nc1cc(Nc2ccc3ncsc3c2)ncc1C(=O)N[C@H]1CC[C@H](NC(=O)N2CCOCC2)CC1"
  Assayed system: "TLR2 induced IL-6 in peripheral blood mononuclear cells (PBMCs)"
  log10(IC50): 2.23
- Compound: "CC(C)Nc1cc(Nc2ccc3ncsc3c2)ncc1C(=O)N[C@H]1CC[C@H](C(=O)NC23CC4CC(CC(O)(C4)C2)C3)CC1"
  Assayed system: "TLR2 induced IL-6 in peripheral blood mononuclear cells (PBMCs)"
  log10(IC50): 2.57
- Compound: "CC(C)(O)[C@H](F)CNC(=O)c1cnc(Nc2ccc3ncncc3c2)cc1NC1CCC1"
  Assayed system: "TLR2 induced IL-6 in peripheral blood mononuclear cells (PBMCs)"
  log10(IC50): 2.51
- Compound: "CC(C)Nc1cc(Nc2ccc3ncsc3c2)ncc1C(=O)NCC[C@@H](C)NC(=O)Cn1ccnn1"
  Assayed system: "TLR2 induced IL-6 in peripheral blood mononuclear cells (PBMCs)"
  log10(IC50): 2.54
- Compound: "CC(C)(C)Nc1cc(Nc2ccn3nccc3c2)ncc1C(=O)NC[C@@H](F)C(C)(C)O"
  Assayed system: "TLR2 induced IL-6 in peripheral blood mononuclear cells (PBMCs)"
  log10(IC50): 2.45
- Compound: "CC(C)(F)CNc1cc(Nc2ccn3nccc3c2)ncc1C(=O)NC[C@@H](F)C(C)(C)O"
  Assayed system: "TLR2 induced IL-6 in peripheral blood mononuclear cells (PBMCs)"
  log10(IC50): 2.62
- Compound: "O=C(NC1CCC(O)CC1)c1cnc(Nc2ccc3ncsc3c2)cc1NC1CCCC1 (stereo not shown)"
  Assayed system: "TLR2 induced IL-6 in peripheral blood mononuclear cells (PBMCs)"
  log10(IC50): 2.92
- Compound: "CC(C)(O)[C@H](F)CNC(=O)c1cnc(Nc2ncc3ncccc3n2)cc1NC1CCOCC1"
  Assayed system: "TLR2 induced IL-6 in peripheral blood mononuclear cells (PBMCs)"
  log10(IC50): 2.78
- Compound: "CC(C)(O)C(F)(F)CNC(=O)c1cnc(Nc2ccc3ncsc3c2)cc1NC1CC1"
  Assayed system: "TLR2 induced IL-6 in peripheral blood mononuclear cells (PBMCs)"
  log10(IC50): 2.68
- Compound: "CC1(O)CCC(Nc2cc(Nc3ccc4ncsc4c3)ncc2C(=O)NC[C@@H](F)C(C)(C)O)C1 (stereo partly shown)"
  Assayed system: "TLR2 induced IL-6 in peripheral blood mononuclear cells (PBMCs)"
  log10(IC50): 2.76
- Compound: "CC(C)Nc1cc(Nc2ccc3ncsc3c2)ncc1C(=O)NC[C@@H](F)C(O)(C1CC1)C(F)(F)F (stereo partly shown)"
  Assayed system: "TLR2 induced IL-6 in peripheral blood mononuclear cells (PBMCs)"
  log10(IC50): 2.36
- Compound: "CC(C)Nc1cc(Nc2ccc3[nH]c(=O)sc3c2)ncc1C(=O)NC[C@@H](F)C(C)(C)O"
  Assayed system: "TLR2 induced IL-6 in peripheral blood mononuclear cells (PBMCs)"
  log10(IC50): 2.70
- Compound: "CC(C)(O)[C@H](F)CNC(=O)c1cnc(Nc2ccn3nccc3n2)cc1NC1CCCC1F (stereo partly shown)"
  Assayed system: "TLR2 induced IL-6 in peripheral blood mononuclear cells (PBMCs)"
  log10(IC50): 2.59
- Compound: "CC(C)(O)[C@H](F)CNC(=O)c1cnc(Nc2ccc3ncsc3c2)cc1NC1CCC(O)C1 (stereo partly shown)"
  Assayed system: "TLR2 induced IL-6 in peripheral blood mononuclear cells (PBMCs)"
  log10(IC50): 2.47
- Compound: "CC(C)(O)[C@H](F)CNC(=O)c1cnc(Nc2nc3ccnn3cc2F)cc1NC1CC2CC2C1(F)F (stereo partly shown)"
  Assayed system: "TLR2 induced IL-6 in peripheral blood mononuclear cells (PBMCs)"
  log10(IC50): 2.35
- Compound: "CC(C)Nc1cc(Nc2ccc3ncsc3c2)ncc1C(=O)NCC[C@@H](C)NC(=O)N1CCCC1"
  Assayed system: "TLR2 induced IL-6 in peripheral blood mononuclear cells (PBMCs)"
  log10(IC50): 2.85
- Compound: "CNC(=O)[C@H]1CC[C@H](NC(=O)c2cnc(Nc3nc4ccnn4cc3F)cc2NC2CCOCC2)CC1"
  Assayed system: "TLR2 induced IL-6 in peripheral blood mononuclear cells (PBMCs)"
  log10(IC50): 3.08
- Compound: "CC(C)(O)[C@H](F)CNC(=O)c1cnc(Nc2ccc3nccnc3c2)cc1NC1CCCC1F (stereo partly shown)"
  Assayed system: "TLR2 induced IL-6 in peripheral blood mononuclear cells (PBMCs)"
  log10(IC50): 2.75
- Compound: "CC(C)Nc1cc(Nc2ccc3ncsc3c2)ncc1C(=O)NC1CCN(S(C)(=O)=O)CC1"
  Assayed system: "TLR2 induced IL-6 in peripheral blood mononuclear cells (PBMCs)"
  log10(IC50): 2.75
- Compound: "CC(C)Nc1cc(Nc2ccc3ncsc3c2)ncc1C(=O)N[C@H]1CC[C@H](N)CC1"
  Assayed system: "TLR2 induced IL-6 in peripheral blood mononuclear cells (PBMCs)"
  log10(IC50): 2.49
- Compound: "CC(C)(O)[C@H](F)CNC(=O)c1cnc(Nc2ccn3nccc3c2)cc1NC1CC1"
  Assayed system: "TLR2 induced IL-6 in peripheral blood mononuclear cells (PBMCs)"
  log10(IC50): 2.25
- Compound: "CC(C)(O)[C@H](F)CNC(=O)c1cnc(Nc2ccc3nccn3n2)cc1NC1CCCC1F (stereo partly shown)"
  Assayed system: "TLR2 induced IL-6 in peripheral blood mononuclear cells (PBMCs)"
  log10(IC50): 2.88
- Compound: "CC(C)Nc1cc(Nc2ccn3nccc3c2)ncc1C(=O)NC[C@@H](F)C(C)(C)O"
  Assayed system: "TLR2 induced IL-6 in peripheral blood mononuclear cells (PBMCs)"
  log10(IC50): 2.62
- Compound: "CNC(=O)c1ccc(CCNC(=O)c2cnc(Nc3ccc4ncsc4c3)cc2NC(C)C)cc1"
  Assayed system: "TLR2 induced IL-6 in peripheral blood mononuclear cells (PBMCs)"
  log10(IC50): 2.49
- Compound: "CC(C)(O)[C@H](F)CNC(=O)c1cnc(Nc2ccn3nccc3n2)cc1NC1CCSCC1"
  Assayed system: "TLR2 induced IL-6 in peripheral blood mononuclear cells (PBMCs)"
  log10(IC50): 2.13
- Compound: "O=C(NCCC1(O)CCC1)c1cnc(Nc2ccc3ncsc3c2)cc1NC1CC1"
  Assayed system: "TLR2 induced IL-6 in peripheral blood mononuclear cells (PBMCs)"
  log10(IC50): 2.06
- Compound: "CCOC(=O)NC12CCC(Nc3cc(Nc4ccc5ncsc5c4)ncc3C(=O)NC[C@@H](F)C(C)(C)O)(CC1)C2"
  Assayed system: "TLR2 induced IL-6 in peripheral blood mononuclear cells (PBMCs)"
  log10(IC50): 2.29
- Compound: "CC(C)(O)[C@H](F)CNC(=O)c1cnc(Nc2ccc3ncccc3c2)cc1NC1CCCC1F (stereo partly shown)"
  Assayed system: "TLR2 induced IL-6 in peripheral blood mononuclear cells (PBMCs)"
  log10(IC50): 2.36

The measurements presented in this section are drawn from patent US9546153B2.
